The reported measurements were obtained from paper PMC9482650.

Biological target: DLG1_2, Q12959
Sequence (Q12959 314-412): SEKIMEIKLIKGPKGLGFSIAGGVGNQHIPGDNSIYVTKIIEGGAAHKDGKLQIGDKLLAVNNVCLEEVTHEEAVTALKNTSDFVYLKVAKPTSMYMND
Test: holdup assay
Design: key: below the threshold = too weak to quantify, mostly under pKd 3.1 to 4
Details: plain residues with an end cap or a label only (N-terminal biotin on a linker: ahx)
Mark not satisfied for pKd values under 4, and satisfied for everything at or above.

> print(dat)
                                binder  assignedcategory
1  LSDPSVSTVV [GRIN1, Q05586;Q05586-2]         satisfied
2        RRRKRKRTYL [HPV49-L2, P36762]     not satisfied
3            GYDWGPATDL [TJP3, O95049]     not satisfied
4            TVICWPGSLV [LNX2, Q8N448]         satisfied
5          HNAFLSVTTV [PDZRN4, Q6ZMN7]     not satisfied
